Origin of the recorded values: paper PMC9100072

# target: human μ-opioid (OP3) receptor (Homo sapiens, UniProt P35372)
# Sequence (P35372 whole entry): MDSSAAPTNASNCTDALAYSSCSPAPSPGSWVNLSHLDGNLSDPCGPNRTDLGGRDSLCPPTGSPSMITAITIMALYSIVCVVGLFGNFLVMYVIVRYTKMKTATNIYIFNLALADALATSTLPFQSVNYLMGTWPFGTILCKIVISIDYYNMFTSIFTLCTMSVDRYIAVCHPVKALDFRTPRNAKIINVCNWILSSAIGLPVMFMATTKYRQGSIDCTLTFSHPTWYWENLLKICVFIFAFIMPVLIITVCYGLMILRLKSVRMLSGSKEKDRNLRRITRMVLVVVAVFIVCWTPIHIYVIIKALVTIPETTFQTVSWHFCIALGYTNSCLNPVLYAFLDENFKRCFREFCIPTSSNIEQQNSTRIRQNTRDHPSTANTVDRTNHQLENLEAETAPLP
# experimentNotes: cell-based
# Assay type: cell-based
# assayContext: CHO-K1; read-out: Emax% Antagonist Mode
# Emax at 0.0046 µM per record follows
Returns: string containing the numeric result and its unit.

Examples with answers:
| chemicalSmiles | Emax at 0.0046 µM |
| --- | --- |
| O=C1N=C2N(CCN2c2ccccc2)C1=O | 4% |
| O=C1N=C2N(CCN2c2ccc(Cl)cc2)C1=O | 12% |
| Cc1cccc(N2CCN3C(=O)C(=O)N=C32)c1 | 6% |
| Cc1ccc(N2CCN3C(=O)C(=O)N=C32)cc1 | 4% |

IN: Provide one value: measured Emax at 0.0046 µM of "O=C1N=C2N(CCN2c2cccc(Cl)c2)C1=O"
OUT: 4%

---

# target: human μ-opioid (OP3) receptor (Homo sapiens)
# experimentNotes: cell-based
# Assay type: cell-based
# Set-up: dose or concentration left out as unconfirmed
# assayContext: CHO-K1; read-out: Emax% Antagonist Mode
reportedEndpoint: Emax

Reference set, count: 4
| chemicalSmiles | target | Emax |
| --- | --- | --- |
| O=C1N=C2N(CCN2c2ccc(Cl)cc2)C1=O | human μ-opioid (OP3) receptor (Homo sapiens) | 8% |
| Cc1ccc(N2CCN3C(=O)C(=O)N=C32)cc1 | human μ-opioid (OP3) receptor (Homo sapiens) | 35% |
| O=C1N=C2N(CCN2c2cccc(Cl)c2)C1=O | human μ-opioid (OP3) receptor (Homo sapiens) | 22% |
| Cc1cccc(N2CCN3C(=O)C(=O)N=C32)c1 | human μ-opioid (OP3) receptor (Homo sapiens) | 10% |

IN: Determine its reported Emax: "O=C1N=C2N(CCN2c2ccccc2)C1=O"
OUT: 6%

---

Each entry below carries its reported Emax.
# target: human μ-opioid (OP3) receptor (Homo sapiens, UniProt P35372)
# experimentNotes: cell-based
# assayContext: U2OS; read-out: Emax% Agonist Mode
Answer in %, number only, no unit symbol.

| compound | reportedEndpoint | measured |
| --- | --- | --- |
| O=C1N=C2N(CCN2c2ccc(Cl)cc2)C1=O [1e] | Emax | 14 |

IN: Please give the documented Emax of Cc1cccc(N2CCN3C(=O)C(=O)N=C32)c1 [1b]
OUT: 13

IN: Tell me its Emax given O=C1N=C2N(CCN2c2cccc(Cl)c2)C1=O [1d] as the entry.
OUT: 15

IN: Assign Emax to the following record: O=C1N=C2N(CCN2c2ccccc2)C1=O [1a]
OUT: 8

IN: Name the recorded Emax of the item Cc1ccc(N2CCN3C(=O)C(=O)N=C32)cc1 [1c] in your answer.
OUT: 15

---

# target: human μ-opioid (OP3) receptor (Homo sapiens, UniProt P35372)
# experimentNotes: cell-based
# Assay type: cell-based
# assayContext: CHO-K1; read-out: Emax% Agonist Mode
reportedEndpoint: Emax (%)
Note: unit % is implicit; provide only the numeric part.

Look over these answered cases.
| chemicalSmiles | unitAbbrev | Emax |
| --- | --- | --- |
| Cc1ccc(N2CCN3C(=O)C(=O)N=C32)cc1 | % | 13 |
| O=C1N=C2N(CCN2c2ccccc2)C1=O | % | 15 |

IN: State, in one line, measured Emax of "Cc1cccc(N2CCN3C(=O)C(=O)N=C32)c1"
OUT: 13

IN: Name the recorded Emax of the compound listed here: "O=C1N=C2N(CCN2c2ccc(Cl)cc2)C1=O"
OUT: 13

IN: Check the records and state Emax for "O=C1N=C2N(CCN2c2cccc(Cl)c2)C1=O"
OUT: 13

---

# target: human μ-opioid receptor (Homo sapiens, UniProt P35372)
# Construct: purchased Perkin Elmer ES-542-M400UA; host or cells: CHO-K1 cells, stably transfected (membranes)
# Sequence (P35372 whole entry): as above
# experimentNotes: biochemical
# Type: binding
# assayContext: tested concentrations 10^−5–10^−10 M
reportedEndpoint: binding to the μ-opioid receptor

Examples with their reported binding to the μ-opioid receptor follow.
| chemicalSmiles | reportedEndpoint | measured |
| --- | --- | --- |
| Cc1cccc(N2CCN3C(=O)C(=O)N=C32)c1 | binding to the μ-opioid receptor | No binding |
| Cc1ccc(N2CCN3C(=O)C(=O)N=C32)cc1 | binding to the μ-opioid receptor | No binding |
| O=C1N=C2N(CCN2c2cccc(Cl)c2)C1=O | binding to the μ-opioid receptor | No binding |
| O=C1N=C2N(CCN2c2ccccc2)C1=O | binding to the μ-opioid receptor | No binding |

With those in mind, consider the next molecule.
IN: Item "O=C1N=C2N(CCN2c2ccc(Cl)cc2)C1=O" : provide binding to the μ-opioid receptor
OUT: No binding

---

# target: human μ-opioid (OP3) receptor (Homo sapiens)
# experimentNotes: cell-based
# assayContext: U2OS; read-out: Emax% (EC20: 1 nM) Antagonist Mode
reportedEndpoint: Emax (%)
Provide only the numeric value, understood in %.

Worked examples follow.
| compound | unitAbbrev | measured |
| --- | --- | --- |
| O=C1N=C2N(CCN2c2ccc(Cl)cc2)C1=O [1e] | % | 89 |
| O=C1N=C2N(CCN2c2cccc(Cl)c2)C1=O [1d] | % | 92 |
| Cc1ccc(N2CCN3C(=O)C(=O)N=C32)cc1 [1c] | % | 97 |
| Cc1cccc(N2CCN3C(=O)C(=O)N=C32)c1 [1b] | % | 94 |

# next compound below
IN: Complete the entry with Emax for O=C1N=C2N(CCN2c2ccccc2)C1=O [1a]
OUT: 92

---

# target: human μ-opioid (OP3) receptor (Homo sapiens, UniProt P35372)
# experimentNotes: cell-based
# assayContext: U2OS, read-out: Emax% (EC87: 30 nM) Antagonist Mode
reportedEndpoint: Emax at 0.03 µM
Remember to follow the number with its unit.

// worked examples, Emax at 0.03 µM included
| compound | measured |
| --- | --- |
| O=C1N=C2N(CCN2c2ccccc2)C1=O [1a] | 22% |
| Cc1ccc(N2CCN3C(=O)C(=O)N=C32)cc1 [1c] | 12% |
| O=C1N=C2N(CCN2c2ccc(Cl)cc2)C1=O [1e] | 19% |

IN: Check the records and state Emax at 0.03 µM for O=C1N=C2N(CCN2c2cccc(Cl)c2)C1=O [1d]
OUT: 9%

IN: Specify reported Emax at 0.03 µM for the compound shown: Cc1cccc(N2CCN3C(=O)C(=O)N=C32)c1 [1b]
OUT: 12%
